Tested on: NCI-H23 lung
Test: NCI tumour cell line growth inhibition, 48 h
Parameter TGI: see the listing below.

Solved entries (count: 2):
Nc1nc(Cl)nc2c1ncn2C1OC(CO)C(O)C1O (stereo unspecified) ... > 100 µM
COc1ccc(C=NCCCN=Cc2ccc(OC)cc2O)c(O)c1 ... > 100 µM

Jot down TGI (NCI-H23 lung) of O=[N+]([O-])c1ccc2c(N=Nc3ccc4ccccc4c3O)c(O)cc(S(=O)(=O)O)c2c1 .
> 93.4 µM

Jot down TGI (NCI-H23 lung) of COC1/C=C/OC2(C)Oc3c(C)c(O)c4c(O)c(c(C=NOC(c5ccccc5)c5ccccc5)c(O)c4c3C2=O)NC(=O)/C(C)=C/C=C/C(C)C(O)C(C)C(O)C(C)C(OC(C)=O)C1C (stereo unspecified) .
5.43 µM

Jot down TGI (NCI-H23 lung) of O=C1NC2OC(CO)C(O)C(O)C2O1 (stereo unspecified) .
> 100 µM

Jot down TGI (NCI-H23 lung) of COc1ccc2nc3c([N+](=O)[O-])ccc(NCCCN(C)C)c3c(N)c2c1 .
3.95 µM

Jot down TGI (NCI-H23 lung) of O=C(O)c1c[nH]c2c(ccc3[nH]cc(C(=O)O)c(=O)c32)c1=O .
> 100 µM

Jot down TGI (NCI-H23 lung) of CC(C)(CO)NC(=O)c1cccs1 .
> 100 µM

Jot down TGI (NCI-H23 lung) of CCSc1[nH]c(NC(=NC(C)C)NC(=O)c2ccccc2)c(C(N)=O)c1C(N)=O .
> 10 µM

Jot down TGI (NCI-H23 lung) of O=C(c1cccnc1)N1N=C(c2ccc3c(c2)OCO3)CC1(O)c1cc(F)c(Cl)cc1Cl (stereo unspecified) .
> 100 µM

Jot down TGI (NCI-H23 lung) of O=C1CCc2ccccc2O1 .
> 100 µM

====

Parameter TGI: see the listing below.
Test system: SK-MEL-28 melanoma
Assay: NCI tumour cell line growth inhibition, 48 h

Solved entries (count: 4):
COc1ccc(OC)c(-c2cc(=O)c3cc4c(cc3[nH]2)OCO4)c1 ... > 100 µM
Cc1cc(C)c(C2=NO[C@@H]3C(=O)N(c4ccc(Cc5ccc(N6C(=O)[C@H]7C(c8c(C)cc(C)cc8C)=NO[C@H]7C6=O)cc5)cc4)C(=O)[C@H]23)c(C)c1 ... > 100 µM
Clc1ccc(Nc2nnc(CNc3ccc(-c4nnc(Nc5ccc(Cl)cc5)o4)cc3)o2)cc1 ... 34.7 µM
CCOC(=O)C1=C(C)N(c2ccc(Cl)cc2)C2(O)C=CC(Nc3ccc(Cl)cc3)=C3C(=O)N(c4ccccc4)C(=O)C312 (stereo not given) ... 6.89 µM

Could you please provide reported TGI for O=C1Nc2c(ccc(Cl)c2Cl)/C1=C\c1cc(C(F)(F)F)cc(C(F)(F)F)c1 ? Thanks!
7.61 µM

Could you please provide reported TGI for CC1(C)OC2[C@@H](CO[C@@]3([C@H]4OC(C)(C)O[C@@H]4CO)OC(C)(C)O[C@@H]23)O1 (stereo not given in full) ? Thanks!
> 100 µM

Could you please provide reported TGI for COc1cc(=O)oc(/C=C/CO)c1C ? Thanks!
> 100 µM

Could you please provide reported TGI for O=C1NC(Cc2ccccc2)C(=O)N2CCCC12 (stereo not given) ? Thanks!
> 100 µM

Could you please provide reported TGI for CSCC(COC(C)=O)(CSC)c1ccncc1 ? Thanks!
> 100 µM

Could you please provide reported TGI for CS(=O)(=O)c1ccc(-c2cnc(NCc3ccco3)n3cnnc23)cc1 ? Thanks!
> 100 µM

Could you please provide reported TGI for Cc1ccc(O)cc1 (tested in a mixture with another compound) ? Thanks!
> 100 µM

Could you please provide reported TGI for Cn1c2c(c3ccccc31)CCN(CCCN1CCN(c3ccccc3)CC1)C2=O ? Thanks!
36.7 µM

Could you please provide reported TGI for Cc1nc(-n2nc(-c3ccccc3)cc2-c2ccccc2)sc1C(/C=C/c1ccc([N+](=O)[O-])cc1)=N/NC(N)=S ? Thanks!
> 100 µM

Could you please provide reported TGI for CCOP(=O)(OCC)C(C)(CC)/N=C(\N)NC#N (stereo not given) ? Thanks!
> 100 µM

Could you please provide reported TGI for O=P(Nc1cccc(Cl)c1)(Oc1ccccc1)N(CCCl)CCCl (stereo not given) ? Thanks!
30.5 µM

Could you please provide reported TGI for c1ccc(Sc2nc(Sc3ccccc3)nc(Sc3ccccc3)n2)cc1 ? Thanks!
> 100 µM

Could you please provide reported TGI for NC(CSC1(c2ccc(Cl)cc2)c2ccccc2-c2ccccc21)C(=O)O (stereo not given) ? Thanks!
> 100 µM

Could you please provide reported TGI for COc1cc([C@@H]2c3cc4c(cc3[C@@H](NC(=O)c3ccc(OC(C)=O)cc3)C3COC(=O)[C@@H]32)OCO4)cc(OC)c1O (stereo not given in full) ? Thanks!
23.5 µM

Could you please provide reported TGI for CCOC(=O)[C@H](CO)Nc1c(O)c2c(c(O)c1Cl)C(=O)C=CC2=O ? Thanks!
> 10 µM

Could you please provide reported TGI for O=[N+]([O-])c1ccc2c(N=Nc3ccc4ccccc4c3O)c(O)cc(S(=O)(=O)O)c2c1 ? Thanks!
> 100 µM
